Test: qHTS Assay for Rab9 Promoter Activators; further: nearly all actives have a fitted effect of over 60% in size; further: potency means the concentration at half of the fitted maximal effect
Settings: Huh7 Rab9 promoter-luciferase reporter, luminescence, 24 h; series mostly up to 9.22 µM
Excerpt: NIH Chemical Genomics Center [NCGC] NIH Molecular Libraries Probe Production centers Network [MLPCN] […] The Rab9 promoter is cloned in front of the luciferase reporter gene, therefore […] promoter activation results in luciferase expression. […] 7.Read using the luminescence protocol on the ViewLux plate reader (Perkin Elmer).
Screen size: about 320,000 compounds; about 9,100 (2.8%) were called active. Inconclusive results (about 3%) are left out. Shown is part of a subset that was picked to be rich in actives.
REPORTED ENDPOINT: Potency

> print(dat)
                                   compound   measured.result
1  CC1(C(=O)OCC(=O)Nc2ncc(Cl)cc2Cl)CC1(Cl)Cl (stereo unspecified)          inactive
2            CCCCNC(=O)C(=O)c1ccccc1NC(C)=O          inactive
3  CCN(CC)S(=O)(=O)c1cc(C(=O)Nc2cc(S(=O)(=O)N3CCOCC3)ccc2N2CCCC2)ccc1F          inactive
4  Cc1cc(C)n2nc(C(=O)OCC(=O)N(C)CC(=O)Nc3ccc(F)cc3)nc2n1          inactive
5     CC(=O)Nc1ccccc1C(=O)C(=O)Nc1ccc(F)cc1  2510 nM (active)

Query string: I'd like to know its Potency. The compound in question is CCC1(C)CC(=O)NC1=O (stereo unspecified)
Result string: inactive

Query string: I'd like to know its Potency. The compound in question is CC(=O)c1sc(NC(=O)CCN2C(=O)C3CC=CCC3C2=O)nc1-c1ccccc1 (stereo unspecified)
Result string: inactive

Query string: I'd like to know its Potency. The compound in question is `O=C(CNC(=O)c1ccccc1Br)NNC(=O)c1cccs1`
Result string: inactive

Query string: I'd like to know its Potency. The compound in question is `C1=C(CCNc2ncnc3c2cnn3-c2ccccc2)CCCC1`
Result string: 2820 nM (active)

Query string: I'd like to know its Potency. The compound in question is COc1cc(C(c2c(NC(=O)c3ccco3)sc(C)c2C)N2CCOCC2)cc(OC)c1OC (stereo unspecified)
Result string: inactive

Query string: I'd like to know its Potency. The compound in question is `O=C(NNc1ncnc2c1cnn2-c1ccccc1)c1ccco1`
Result string: inactive

====

Assay: qHTS Assay for Rab9 Promoter Activators; further: nearly all actives have a fitted effect of over 60% in size; further: potency means the concentration at half of the fitted maximal effect
Conditions: Huh7 Rab9 promoter-luciferase reporter, luminescence, 24 h; series mostly up to 9.22 µM
The campaign covered roughly 320,000 compounds. About 9,100 (2.8%) were called active. Not shown: some 3% with an inconclusive outcome. Shown is part of a subset that was picked to be rich in actives.
REPORTED ENDPOINT: Potency

Previously resolved entries follow.
> print(dat)
                                test.smiles  reported.endpoint    measured.result
1  CCOC(=O)c1c(C)[nH]c(C(=O)OCC(=O)c2ccc(OC)cc2OC)c1C            Potency           inactive
2  COc1cccc(C(=O)OCC(=O)c2[nH]c(C)c(C(C)=O)c2C)c1            Potency           inactive
3  COc1ccc(C(=O)NC2CCN(C(=S)NCCc3ccccc3)CC2)cc1            Potency           inactive
4                  S=C(NCCc1ccccc1)N1CCCCC1            Potency   3.16 µM (active)
5            O=C(c1cc(-c2cccs2)on1)N1CCCCC1            Potency  0.562 µM (active)
6  O=C(c1cc(-c2cccc(O)c2)on1)N1CCc2ccccc2C1            Potency           inactive
7  O=C(c1cc(-c2ccc(O)cc2)on1)N1CCCc2ccccc21            Potency           inactive
8  Cc1cc(C)nc(N2CCC(C(=O)Nc3ccc4c(c3)OCCO4)CC2)n1            Potency           inactive

Query string: I'd like to know its Potency. The compound in question is `CN(C)S(=O)(=O)c1cccc(NC(=S)N/N=C/C(=O)c2ccccc2)c1`
Result string: inactive

Query string: I'd like to know its Potency. The compound in question is `COc1ccc(-c2cc(C(=O)N3CCN(c4ccc(F)cc4)CC3)no2)cc1`
Result string: inactive

Query string: I'd like to know its Potency. The compound in question is `Cc1ccc(NC(=O)CN(C)S(=O)(=O)c2cnc[nH]2)cc1C`
Result string: inactive

Query string: I'd like to know its Potency. The compound in question is `O=c1ccc2c(-c3ccccc3S(=O)(=O)O)c3ccc(O)c(O)c3oc-2c1O`
Result string: inactive
